Consider the following binders and their measured peptide exchange yield readings.
- target.system: T1, HLA-A*02:01 (human)
- T1 construct: captured on streptavidin plates; also called peptide-receptive MHC molecules
- run.description: UV peptide exchange ELISA (anti-b2m); yield grade: + >10%, ++ >20%, +++ >50, ++++ >75%

The examples below pair each entry with its known result.
INSERT INTO measurements (binder, value_kind, measured_result) VALUES
  ('VLFGAVITGA', 'peptide exchange yield', '> 75%'),
  ('VLFSSPPVILL', 'peptide exchange yield', '> 75%'),
  ('ALKDLVNLI', 'peptide exchange yield', '> 75%'),
  ('KALQFLEEV', 'peptide exchange yield', '> 75%');

Consider the record given below.
Input line: Return reported peptide exchange yield; argument: ILDGIIREL
Output line: 50 to 75%
